Provide the recorded Herbicidal action against [%] STEME for the entries that follow.
system: STEME; assay: Post-emergence herbicidal action against STEME; assay type: in vivo, Stellaria media; settings: application rate 80 g/ha, rated visually about 3 weeks after treatment
Your answer should be a plain number; it is taken to be in %.

[in] Which Herbicidal action against [%] STEME is reported for this compound? COC(=O)[C@H]1C=C[C@H](NC(=O)[C@@]2(C(F)(F)F)CC(c3cc(F)cc(F)c3)=NO2)C1
[out] 80

[in] Same question for CCOC(=O)C1C=CC(NC(=O)C2(C(F)(F)F)CC(c3cccc(Cl)c3)=NO2)C1 (mixture of isomers) please.
[out] 90

[in] Same question for CC(C)(C#N)NC(=O)C1C=CC(NC(=O)C2(C)CC(c3cc(F)cc(F)c3)=NO2)C1 (mixture of isomers) please.
[out] 90

[in] Same question for O=C(OCC(F)(F)F)C1C=CC(NC(=O)C2(C(F)(F)F)CC(c3cccc(Cl)c3)=NO2)C1 (mixture of isomers) please.
[out] 90

[in] Same question for COC(=O)C1C=CC(NC(=O)C2(C(F)(F)F)CC(c3cc(Cl)cc(Cl)c3)=NO2)C1 (mixture of isomers) please.
[out] 90

[in] Same question for CC1(C(=O)NC2C=CC(C(=O)NC(C)(C)C(F)(F)F)C2)CC(c2cc(F)cc(F)c2)=NO1 (mixture of isomers) please.
[out] 90

[in] Same question for CCOC(=O)[C@@H]1C=C[C@H](NC(=O)C2(C)CC(c3cccc(F)c3)=NO2)C1 (stereo partly shown) please.
[out] 80

* * *

test system: STEME; test: Post-emergence herbicidal action against STEME; format: in vivo, Stellaria media; details: application rate 80 g/ha, rated visually about 3 weeks after treatment
Provide the recorded Herbicidal action against [%] STEME for the entries that follow.
Your answer should be a plain number; it is taken to be in %.

[in] Which Herbicidal action against [%] STEME is reported for this compound? CCOC(=O)C1C=CC(NC(=O)C2(C(F)(F)F)CC(c3cc(C)cc(C)c3)=NO2)C1 (mixture of isomers)
[out] 90

[in] Same question for C=CC1(C(=O)NC2C=CC(C(=O)O)C2)CC(c2cc(F)cc(F)c2)=NO1 (mixture of isomers) [Example I-037] please.
[out] 90

[in] Same question for COC(=O)[C@@H]1C=C[C@H](NC(=O)C2(C(F)(F)F)CC(c3cc(F)cc(C#N)c3)=NO2)C1 (single isomer, unassigned) [Example I-097] please.
[out] 80

[in] Same question for O=C(OCCCl)C1C=CC(NC(=O)C2(C(F)(F)F)CC(c3cc(Cl)cc(Cl)c3)=NO2)C1 (mixture of isomers) please.
[out] 90

[in] Same question for C=CC1(C(=O)N[C@H]2CC=C(C(=O)O)C2)CC(c2cc(F)cc(F)c2)=NO1 (some centres unmarked) please.
[out] 90

[in] Same question for O=C(OCCCl)C1C=CC(NC(=O)C2(C(F)(F)F)CC(c3cc(F)cc(F)c3)=NO2)C1 (mixture of isomers) please.
[out] 90

[in] Same question for O=C(OCCCl)C1C=CC(NC(=O)C2(C(F)(F)F)CC(c3cccc(Cl)c3)=NO2)C1 (mixture of isomers) please.
[out] 80

[in] Same question for CCOC(=O)C1C=CC(NC(=O)C2(C(F)(F)F)CC(c3cc(OC)cc(OC)c3)=NO2)C1 (mixture of isomers) please.
[out] 80

[in] Same question for O=C(O)C1C=CC(NC(=O)C2(C3CC3)CC(c3cc(F)cc(F)c3)=NO2)C1 (centres unmarked) please.
[out] 90

[in] Same question for C=CC1(C(=O)NC2C=CC(C(=O)O)C2)CC(c2cc(F)cc(F)c2)=NO1 (centres unmarked) [Example I-014] please.
[out] 90

[in] Same question for COCCOC(=O)C1C=CC(NC(=O)C2(C(F)(F)F)CC(c3cc(F)cc(C#N)c3)=NO2)C1 (centres unmarked) [Example I-100] please.
[out] 90

[in] Same question for CC(C)C(C#N)NC(=O)C1C=CC(NC(=O)C2(C)CC(c3cc(F)cc(F)c3)=NO2)C1 (mixture of isomers) please.
[out] 90

[in] Same question for Cc1cc(C)cc(C2=NOC(C(=O)NC3C=CC(C(=O)OCC(F)(F)F)C3)(C(F)(F)F)C2)c1 (mixture of isomers) please.
[out] 80

[in] Same question for COCCOC(=O)C1C=CC(NC(=O)C2(C(F)(F)F)CC(c3cc(F)cc(C#N)c3)=NO2)C1 (centres unmarked) [Example I-099] please.
[out] 80
